- Run description: self-splicing fitness, log relative to wild type (ln ratio); higher = more splicing; Tetrahymena group I intron in knt gene, E. coli kanamycin selection, DiMSum; sequences stand for … in CUCUCU…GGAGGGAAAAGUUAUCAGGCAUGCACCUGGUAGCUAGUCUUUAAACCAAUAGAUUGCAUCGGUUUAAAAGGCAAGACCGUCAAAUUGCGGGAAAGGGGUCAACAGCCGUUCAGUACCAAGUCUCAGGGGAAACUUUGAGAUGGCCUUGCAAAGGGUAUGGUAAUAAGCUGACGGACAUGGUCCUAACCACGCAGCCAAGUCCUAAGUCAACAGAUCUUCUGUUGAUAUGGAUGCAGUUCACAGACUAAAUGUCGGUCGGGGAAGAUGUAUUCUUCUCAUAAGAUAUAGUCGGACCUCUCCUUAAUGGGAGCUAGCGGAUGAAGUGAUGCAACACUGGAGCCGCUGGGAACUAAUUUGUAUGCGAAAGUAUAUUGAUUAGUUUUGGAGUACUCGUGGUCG;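 also: selection with 25 µg/mL kanamycin versus none on LB agar overnight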
- Recorded conditions: 30 °C
Result type: self-splicing fitness (ln)

| Item sequence | Result type | Result |
| --- | --- | --- |
| CUCGAGCAAUAUUACGGUAC | self-splicing fitness (ln) | -2.82 |
| AAAGAGCAAUAUUACGCCAU | self-splicing fitness (ln) | -3.65 |
| GUGAAGCAAUAUUACGAGAU | self-splicing fitness (ln) | -2.25 |
| UUCAAGCAAUAUUACGCGCA | self-splicing fitness (ln) | -0.732 |
| GAAGAGCAAUAUUACGCGAG | self-splicing fitness (ln) | -2.82 |
| CUGGAGCAAUAUUACGCAAU | self-splicing fitness (ln) | -3.93 |
| GCCCAGCAAUAUUACGCACA | self-splicing fitness (ln) | -0.537 |
| AAACAGCAAUAUUACGAGUA | self-splicing fitness (ln) | -1.79 |
| CCGGAGCAAUAUUACGUGUA | self-splicing fitness (ln) | -2.99 |
| AGUGAGCAAUAUUACGCGCA | self-splicing fitness (ln) | -2.29 |
| CACUAGCAAUAUUACGAUGU | self-splicing fitness (ln) | -4.05 |
| GCUUAGCAAUAUUACGUCGC | self-splicing fitness (ln) | -1.72 |
| AAACAGCAAUAUUACGUCUA | self-splicing fitness (ln) | -1.21 |
| AUUAAGCAAUAUUACGAUCG | self-splicing fitness (ln) | -2.33 |
| UGAAAGCAAUAUUACGCACU | self-splicing fitness (ln) | -0.504 |
| AGUUAGCAAUAUUACGCUUC | self-splicing fitness (ln) | -2.8 |
| CGGAAGCAAUAUUACGGGAC | self-splicing fitness (ln) | -3.5 |
| AGCAAGCAAUAUUACGCUCC | self-splicing fitness (ln) | -3.78 |
| CGUUAGCAAUAUUACGAAGC | self-splicing fitness (ln) | -2.28 |
| UACCAGCAAUAUUACGGCCU | self-splicing fitness (ln) | -0.232 |
| AUUCAGCAAUAUUACGUAAC | self-splicing fitness (ln) | -0.841 |
| UAAUAGCAAUAUUACGCCCU | self-splicing fitness (ln) | -1.59 |
| GGUAAGCAAUAUUACGUGUC | self-splicing fitness (ln) | -2.08 |
| CCCAAGCAAUAUUACGUGAU | self-splicing fitness (ln) | -3.67 |
| CAACAGCAAUAUUACGCGCA | self-splicing fitness (ln) | -0.857 |
| UAUUAGCAAUAUUACGUAGG | self-splicing fitness (ln) | -1.57 |
| CGGAAGCAAUAUUACGGGUU | self-splicing fitness (ln) | -4.48 |
| GGUAAGCAAUAUUACGGGUU | self-splicing fitness (ln) | -1.82 |
| AUUAAGCAAUAUUACGCGAU | self-splicing fitness (ln) | -3.33 |

----------
- Run description: self-splicing fitness, log relative to wild type (ln ratio); higher = more splicing; Tetrahymena group I intron in knt gene, E. coli kanamycin selection, DiMSum; sequences stand for … in CUCUCU…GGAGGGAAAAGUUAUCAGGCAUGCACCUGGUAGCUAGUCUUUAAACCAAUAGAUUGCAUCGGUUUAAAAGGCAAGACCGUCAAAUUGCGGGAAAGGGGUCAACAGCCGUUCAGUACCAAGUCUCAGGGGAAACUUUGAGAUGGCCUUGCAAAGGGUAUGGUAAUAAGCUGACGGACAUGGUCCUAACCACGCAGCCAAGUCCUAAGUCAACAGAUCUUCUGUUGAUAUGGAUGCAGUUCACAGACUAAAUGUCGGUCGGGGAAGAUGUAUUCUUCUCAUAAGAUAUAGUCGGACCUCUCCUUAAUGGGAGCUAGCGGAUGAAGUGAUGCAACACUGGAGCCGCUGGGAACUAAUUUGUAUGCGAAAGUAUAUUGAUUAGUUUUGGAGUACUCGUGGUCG
- Recorded conditions: 37 °C
Criterion: self-splicing fitness (ln) meeting or surpassing -2. Met: Satisfied. Not met: Not satisfied.

| Item sequence | Assigned category |
| --- | --- |
| UGCUAGCAAUAUUACGUCGC | Not satisfied |
| AUCUAGCAAUAUUACGCAGC | Not satisfied |
| CUCUAGCAAUAUUACGAAAA | Satisfied |
| CGUGAGCAAUAUUACGGGUA | Not satisfied |
| CCAUAGCAAUAUUACGGGGU | Not satisfied |
| UUCUAGCAAUAUUACGUGCA | Satisfied |
| UGAUAGCAAUAUUACGAGAG | Satisfied |
| CGCAAGCAAUAUUACGGGAA | Not satisfied |
| UAACAGCAAUAUUACGACUG | Satisfied |
| AAUCAGCAAUAUUACGAUGA | Satisfied |
| ACUCAGCAAUAUUACGGAUC | Satisfied |
| CGCCAGCAAUAUUACGACGG | Satisfied |
| AUCAAGCAAUAUUACGCGCU | Satisfied |
| AGAAAGCAAUAUUACGGCCU | Satisfied |
| AGAAAGCAAUAUUACGUUAU | Satisfied |
| CGUAAGCAAUAUUACGCCGA | Satisfied |
| GAUCAGCAAUAUUACGAUUA | Satisfied |
| AGCGAGCAAUAUUACGUACU | Satisfied |
| GGUGAGCAAUAUUACGUACC | Satisfied |

----------
- Run description: self-splicing fitness, log relative to wild type (ln ratio); higher = more splicing; Tetrahymena group I intron in knt gene, E. coli kanamycin selection, DiMSum; sequences stand for … in CUCUCU…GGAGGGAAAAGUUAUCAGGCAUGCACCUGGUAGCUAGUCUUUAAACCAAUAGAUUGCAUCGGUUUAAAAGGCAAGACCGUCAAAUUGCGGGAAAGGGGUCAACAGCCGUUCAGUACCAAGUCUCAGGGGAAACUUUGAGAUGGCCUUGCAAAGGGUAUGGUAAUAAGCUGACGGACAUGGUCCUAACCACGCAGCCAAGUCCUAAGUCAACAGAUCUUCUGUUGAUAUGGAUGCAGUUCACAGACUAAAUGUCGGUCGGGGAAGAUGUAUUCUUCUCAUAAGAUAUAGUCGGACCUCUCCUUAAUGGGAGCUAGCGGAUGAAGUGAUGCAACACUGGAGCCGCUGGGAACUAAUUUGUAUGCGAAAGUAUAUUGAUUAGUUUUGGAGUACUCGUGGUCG
- Recorded conditions: 37 °C
Result type: self-splicing fitness (ln)

| Item sequence | Result type | Result |
| --- | --- | --- |
| UUAUAGCAAUAUUACGCACA | self-splicing fitness (ln) | 0.287 |
| AUGAAGCAAUAUUACGCAUG | self-splicing fitness (ln) | 0.175 |
| UCGCAGCAAUAUUACGGCCC | self-splicing fitness (ln) | -2.41 |
| CUCCAGCAAUAUUACGGCUC | self-splicing fitness (ln) | -1.57 |
| GCUCAGCAAUAUUACGUCGA | self-splicing fitness (ln) | -2.45 |
| UCGUAGCAAUAUUACGGGCG | self-splicing fitness (ln) | -1.11 |
| UAUUAGCAAUAUUACGGGCA | self-splicing fitness (ln) | -0.39 |
| CGCAAGCAAUAUUACGCGUA | self-splicing fitness (ln) | -2.55 |
| UCUCAGCAAUAUUACGGGCG | self-splicing fitness (ln) | -0.262 |
| UCUUAGCAAUAUUACGGGGC | self-splicing fitness (ln) | -3.03 |
| CGCAAGCAAUAUUACGCUCA | self-splicing fitness (ln) | -0.6 |
| GUAAAGCAAUAUUACGACCU | self-splicing fitness (ln) | 0.00961 |
| UUGUAGCAAUAUUACGGGUG | self-splicing fitness (ln) | -0.808 |
| AAAGAGCAAUAUUACGCCAG | self-splicing fitness (ln) | -0.837 |
| GUUCAGCAAUAUUACGUGAA | self-splicing fitness (ln) | -0.784 |
| AAUAAGCAAUAUUACGUAUU | self-splicing fitness (ln) | -2.22 |
| CACGAGCAAUAUUACGUGUC | self-splicing fitness (ln) | -2.52 |
| AAGCAGCAAUAUUACGCCCG | self-splicing fitness (ln) | 1.38 |
| ACCCAGCAAUAUUACGGACC | self-splicing fitness (ln) | -0.347 |
| AAUGAGCAAUAUUACGUAGA | self-splicing fitness (ln) | -2.56 |
| UGCAAGCAAUAUUACGCAGC | self-splicing fitness (ln) | -2.58 |
| GACAAGCAAUAUUACGUCGU | self-splicing fitness (ln) | -2.24 |
| AGGCAGCAAUAUUACGAGAU | self-splicing fitness (ln) | -2.26 |
| GACUAGCAAUAUUACGAGGG | self-splicing fitness (ln) | -2.65 |
| CAUGAGCAAUAUUACGCACA | self-splicing fitness (ln) | -2.44 |
| CCACAGCAAUAUUACGAGAA | self-splicing fitness (ln) | -3.69 |
| AGUCAGCAAUAUUACGGCAA | self-splicing fitness (ln) | -0.215 |
| ACGAAGCAAUAUUACGAUGA | self-splicing fitness (ln) | -1.29 |
